- Assayed system: GST-SBP-SLBP (stem-loop binding protein) (Homo sapiens, UniProt Q14493 1-270)
- Assay summary: targeted RNA Bind-n-Seq; RBNS binding buffer: 25 mM Tris pH 7.5, 150 mM KCl, 3 mM MgCl2, 0.1% Tween, 0.5 mg/mL BSA, 1 mM DTT; 27 nM protein, 750 pM RNA pool; temperature not stated; high values mean tight binding
- Applied conditions: protein: recombinant; tags: N-terminal GST and SBP (pGEX6P1-SBP); structured_RNA
The full ranking holds about 11,000 sequences; the median of “log2 fold change” is about 0.00022, and the highest 2% start at about 0.34. The list shows a part of the results.
binding signal by entry:
Form entry: value (log2 fold change) — number only.

Example entries begin here.
GGUCACGUCUCAAUCAACUCAACGGAGGGGGGGAAAACCCCUUUACCCUCAACAUCAACAGCUCGCAGUCAAG = 0.308
GGUCACGUCUCAAUCAACUCUUUCGAGGGGGGGAAAACCCCUUUACCCUCAUACUCAACAGCUCGCAGUCAAG = 0.524
GGUCACGUCUCAAUCAACUCUUACGAGGGGGGGAAAACCCCUUUACCCUCACACUCAACAGCUCGCAGUCAAG = 0.321

Query string: Name the reported binding signal value associated with the sequence `GGUCACGUCUCAAUCAACUCUUCGCCCAGGGAAAGCCCUGGUUAUUUCAACAGCUCGCAGUCAAG`
Result string: 0.464

Query string: Name the reported binding signal value associated with the sequence `GGUCACGUCUCAAUCAACUCAAACGAGGGGGGGAAAACCCCUUUACCCUCAACUUCAACAGCUCGCAGUCAAG`
Result string: 0.35

Query string: Name the reported binding signal value associated with the sequence `GGUCACGUCUCAAUCAACUCCUUCGAGGGGGGGAAAACCCCUUUACCCUCUUCAUCAACAGCUCGCAGUCAAG`
Result string: 0.429

Query string: Name the reported binding signal value associated with the sequence `GGUCACGUCUCAAUCAACUCUUCUCCCAGGGAAACCCCUGGUUAUUUCAACAGCUCGCAGUCAAG`
Result string: 0.372

Query string: Name the reported binding signal value associated with the sequence `GGUCACGUCUCAAUCAACUCUUCUCCCAGGGAAAGCCCUGGCAAUUUCAACAGCUCGCAGUCAAG`
Result string: 0.428
